# System: A549 cells
# EXPERIMENTAL_DETAILS: Proliferation Assay (A549 viability, Cell Titer Fluor, 72 hours)
# Assay type: cell-based
# MEASUREMENT_PARAMETERS: Homo sapiens, read-out: EC50 against A549 cell proliferation
pEC50: −log10 of the molar value.
Collected pEC50 values appear next to each entry.
PROPERTY_LABEL: pEC50

[[record]]
compound = "Cc1cccc(CC(=O)Nc2ccc(C3CCN(c4nnc(C(=O)NCc5cc(C(F)(F)F)ccn5)s4)C3)nn2)n1 (stereo not shown) [Example 49]"
experimental_result = "> 7.00"

[[record]]
compound = "O=C(Cc1ccccn1)Nc1nnc(C2CCN(c3nnc(NC(=O)Cc4cccc(OC(F)(F)F)c4)s3)C2)s1 (stereo not shown) [Example 32]"
experimental_result = "5.30 to 6.30"

[[record]]
compound = "O=C(Nc1ccc(N2CCC(n3cc(C(=O)NCc4ccccn4)nn3)C2)nn1)OCc1ccccc1 (stereo not shown) [Example 5]"
experimental_result = "5.30 to 6.30"

[[record]]
compound = "CC(=O)Nc1nnc(N2CCC(c3ccc(NC(=O)Cc4cccc(OC(F)(F)F)c4)nn3)C2)s1 (stereo not shown) [Example 27]"
experimental_result = "6.30 to 7.00"

[[record]]
compound = "O=C(Cc1cccc(OC(F)(F)F)c1)Nc1ccc(N2CCCC(c3nnc(NC(=O)Cc4ccccc4F)s3)C2)nn1 (stereo not shown) [Example 23]"
experimental_result = "6.30 to 7.00"

[[record]]
compound = "CC(=O)Nc1cn(C2CCN(c3ccc(NC(=O)Cc4cccc(OC(F)(F)F)c4)nn3)C2)nn1 (stereo not shown) [Example 11]"
experimental_result = "5.30 to 6.30"

[[record]]
compound = "O=C(Cc1ccccn1)Nc1ccc(N2CCC(c3nnc(NC(=O)Cc4cccc(OC(F)(F)F)c4)s3)C2)nn1 (stereo not shown) [Example 42]"
experimental_result = "6.30 to 7.00"

